# assayed_system: Cytochrome P450 3A4 (Homo sapiens) (UniProt P08684)
# Sequence (P08684 whole entry, looked up): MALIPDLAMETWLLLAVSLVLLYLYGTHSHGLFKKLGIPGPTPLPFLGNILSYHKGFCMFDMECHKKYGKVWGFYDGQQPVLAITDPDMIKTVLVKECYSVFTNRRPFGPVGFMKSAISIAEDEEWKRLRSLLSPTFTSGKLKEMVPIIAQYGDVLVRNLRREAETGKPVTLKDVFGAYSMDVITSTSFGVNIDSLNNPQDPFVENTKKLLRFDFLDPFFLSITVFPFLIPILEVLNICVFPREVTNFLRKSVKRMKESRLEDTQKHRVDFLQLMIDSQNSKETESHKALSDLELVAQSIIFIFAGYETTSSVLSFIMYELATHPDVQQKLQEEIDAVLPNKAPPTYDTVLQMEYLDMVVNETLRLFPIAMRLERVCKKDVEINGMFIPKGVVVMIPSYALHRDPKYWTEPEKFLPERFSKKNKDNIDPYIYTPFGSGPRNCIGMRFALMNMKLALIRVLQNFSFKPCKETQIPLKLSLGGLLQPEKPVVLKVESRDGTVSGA
# procedure_text: qHTS Assay for Inhibitors and Substrates of Cytochrome P450 3A4 (AID 884); further: nearly all actives have a fitted effect of over 50% in size
# test_conditions: recombinant CYP3A4, Luciferin-PPXE luminescence; series mostly up to 57.1 µM
Records with an inconclusive call do not appear. The source made the active and inactive calls. The call rests on the fitted dose curve; in most records, active means well fitted inhibition curve with a large enough effect; inconclusive means small, poorly fitted or top-dose-only effect; inactive means no such curve, though single readings can be large or run the other way.
Possible outcomes: TRUE for active, FALSE for inactive

[
  {
    "molecule": "OC1CCC2Cc3ccccc3N=C12 (stereo not drawn)",
    "qualitative_label": "FALSE"
  },
  {
    "molecule": "COC(=O)c1cccc(C23CC4(C2)[C@H](CN(CC2CCCCC2)[C@@H]4c2ccccc2)C3c2ccc(Cl)nc2)c1 (stereo partly drawn)",
    "qualitative_label": "TRUE"
  },
  {
    "molecule": "Clc1ccc(C2[C@H]3CN(Cc4cccnc4)[C@H](c4ccccc4)C34CC2(c2cccnc2)C4)cn1 (stereo partly drawn)",
    "qualitative_label": "TRUE"
  },
  {
    "molecule": "CCOC(=O)OCC1OC(c2cc(C)cc(C)c2)C=CC1OC(=O)OCC (stereo not drawn)",
    "qualitative_label": "TRUE"
  },
  {
    "molecule": "CCC1=C2CC[C@H]3C(=O)N(CC)C(=O)[C@H]3[C@H]2[C@@]2(Cc3ccccc3)C(=O)N(Cc3ccccc3)C(=O)N2C1=O",
    "qualitative_label": "TRUE"
  },
  {
    "molecule": "C=CC[C@@H]1C=C[C@H](O/N=C(\\C)CCN2CCCc3nc(C)c(C)cc32)[C@H](CO)O1",
    "qualitative_label": "TRUE"
  },
  {
    "molecule": "COc1cccc([C@@H]2Oc3ccc(OC)cc3/C(=N/O[C@@H](C)CN3CCCc4nc(C)c(C)cc43)[C@@H]2O)c1",
    "qualitative_label": "TRUE"
  },
  {
    "molecule": "CCC1=C2CC[C@H]3C(=O)N(C)C(=O)[C@H]3[C@H]2[C@@]2(C)C(=O)N(CC3CC3)C(=O)N2C1=O",
    "qualitative_label": "FALSE"
  }
]
